Each recorded value in this set is attributed to patent US20230303552A1.

TESTED_ON: human M5 receptors (hM5) (Homo sapiens, UniProt P08912)
Construct: expressed in transfected cells
Sequence (P08912 1-532): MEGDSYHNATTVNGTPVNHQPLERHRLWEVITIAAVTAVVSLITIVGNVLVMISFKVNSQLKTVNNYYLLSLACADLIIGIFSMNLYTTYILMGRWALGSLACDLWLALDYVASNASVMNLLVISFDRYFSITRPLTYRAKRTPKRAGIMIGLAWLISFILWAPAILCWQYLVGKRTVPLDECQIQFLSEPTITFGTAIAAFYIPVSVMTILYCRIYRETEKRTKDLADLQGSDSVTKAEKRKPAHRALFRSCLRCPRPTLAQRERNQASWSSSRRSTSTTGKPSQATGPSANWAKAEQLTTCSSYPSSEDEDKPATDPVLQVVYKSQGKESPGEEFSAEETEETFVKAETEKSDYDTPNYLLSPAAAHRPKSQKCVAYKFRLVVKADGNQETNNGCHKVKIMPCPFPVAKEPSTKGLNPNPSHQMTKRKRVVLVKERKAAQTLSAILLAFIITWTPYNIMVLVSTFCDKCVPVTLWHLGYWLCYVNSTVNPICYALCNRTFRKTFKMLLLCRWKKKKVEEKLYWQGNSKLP
PROCEDURE_TEXT: Cell-based functional calcium mobilization assay of mAChR M5 activity (inhibition of EC80 acetylcholine response) in CHO cells
APPLIED_CONDITIONS: CHO cells stably expressing hM5; minimum of EC80 acetylcholine response, normalized to maximum acetylcholine response
Could you please report measured EC80 MIN for the items listed next?
Use % as the unit, but write only the number.

The compound `O=C(Nc1ccc2scnc2c1)C1CCN(S(=O)(=O)c2ccc3c(c2Br)CCO3)CC1` showed EC80 MIN equal to 2

The compound CC1(C)CN(S(=O)(=O)c2ccc3ncsc3c2)CCC1C(=O)Nc1ccc2scnc2c1 (stereo not shown) showed EC80 MIN equal to 38

The compound O=C(Nc1ccc2scnc2c1)C12CC1CN(S(=O)(=O)c1ccc3c(c1)CCO3)C2 (racemic) showed EC80 MIN equal to 2

The compound Cc1ncc(S(=O)(=O)N2CC[C@H](C(=O)Nc3ccc4scnc4c3)[C@@H](F)C2)s1 (racemic) showed EC80 MIN equal to 2
